Where do these numbers come from? They come from patent US12180192B2.

# Tested On: human thyroid receptor beta ligand-binding domain (LBD) (Homo sapiens)
# Construct: purchased Invitrogen
# Experimental Protocol: TR-FRET thyroid receptor beta coactivator assay (THR biochemical assay, Assay 1)
# Reported Conditions: Table 5; Assay 1; THRβ; read-out: Activity category Assay 1 THRβ (Emax)
Listed next: entries and their corresponding Emax.

Example results:
Cc1cc(-c2nn(C)c(=O)[nH]c2=O)cc(C)c1Cc1ccc2[nH]cc(C(C)C)c2n1; 50 to 75%
CC(C)C1(C)C(=O)Nc2ccc(Oc3c(Cl)cc(-n4nc(N)c(=O)[nH]c4=O)cc3Cl)cc21 (stereo not shown); < 50%
CC(c1cc(Oc2c(Cl)cc(-n3nc(N)c(=O)[nH]c3=O)cc2Cl)n[nH]c1=O)C1CC(F)(F)C1 (single isomer, unassigned) [Compound 61-A]; 50 to 75%

Would you kindly look at the next entry?
Notebook: O=c1cc(-c2ccc3ccccc3c2)c(Oc2c(Cl)cc(-n3ncc(=O)[nH]c3=O)cc2Cl)n[nH]1 , Emax read as < 50%

* * *

# Tested On: human thyroid receptor beta ligand-binding domain (LBD) (Homo sapiens, UniProt P10828)
# Sequence (P10828 217-461 limits assumed): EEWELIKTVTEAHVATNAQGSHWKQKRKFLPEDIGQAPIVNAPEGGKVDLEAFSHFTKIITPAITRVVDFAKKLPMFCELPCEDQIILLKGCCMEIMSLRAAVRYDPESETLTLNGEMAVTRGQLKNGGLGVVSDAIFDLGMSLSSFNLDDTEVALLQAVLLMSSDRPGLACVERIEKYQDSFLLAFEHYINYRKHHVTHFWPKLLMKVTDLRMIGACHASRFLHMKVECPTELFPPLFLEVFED
# Experimental Protocol: TR-FRET thyroid receptor beta coactivator assay (THR biochemical assay, Assay 1)
# Reported Conditions: THR-beta, TR-FRET coactivator assay; read-out: Activity category Assay 1 (EC50, THR-beta agonist)
pEC50: −log10 of the molar value.
Listed next: entries and their corresponding pEC50.

Notebook: O=c1cnn(-c2cc(Cl)c(Oc3cc(-c4ccc5ccccc5c4)c(=O)[nH]n3)c(Cl)c2)c(=O)[nH]1 , pEC50 read as 6.60 to 7.30

* * *

Listed next: entries and their corresponding pEC50.
# Tested On: THR alpha (Homo sapiens)
# Construct: expressed in transfected cells; host or cells: HEK293T (ATCC CRL-3216)
# Sequence (P10827 1-410 isoform P10827-2): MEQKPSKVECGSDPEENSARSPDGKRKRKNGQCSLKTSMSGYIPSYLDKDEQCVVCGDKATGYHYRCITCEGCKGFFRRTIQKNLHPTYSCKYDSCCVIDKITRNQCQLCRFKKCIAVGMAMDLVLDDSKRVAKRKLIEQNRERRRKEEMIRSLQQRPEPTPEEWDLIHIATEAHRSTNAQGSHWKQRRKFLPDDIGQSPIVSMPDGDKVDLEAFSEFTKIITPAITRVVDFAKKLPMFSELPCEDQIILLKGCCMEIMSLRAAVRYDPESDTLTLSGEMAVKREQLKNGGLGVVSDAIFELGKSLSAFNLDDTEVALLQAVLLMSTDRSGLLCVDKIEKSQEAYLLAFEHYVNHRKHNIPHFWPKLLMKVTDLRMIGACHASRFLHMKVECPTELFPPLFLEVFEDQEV
# Sequence (P19793 1-462 partner): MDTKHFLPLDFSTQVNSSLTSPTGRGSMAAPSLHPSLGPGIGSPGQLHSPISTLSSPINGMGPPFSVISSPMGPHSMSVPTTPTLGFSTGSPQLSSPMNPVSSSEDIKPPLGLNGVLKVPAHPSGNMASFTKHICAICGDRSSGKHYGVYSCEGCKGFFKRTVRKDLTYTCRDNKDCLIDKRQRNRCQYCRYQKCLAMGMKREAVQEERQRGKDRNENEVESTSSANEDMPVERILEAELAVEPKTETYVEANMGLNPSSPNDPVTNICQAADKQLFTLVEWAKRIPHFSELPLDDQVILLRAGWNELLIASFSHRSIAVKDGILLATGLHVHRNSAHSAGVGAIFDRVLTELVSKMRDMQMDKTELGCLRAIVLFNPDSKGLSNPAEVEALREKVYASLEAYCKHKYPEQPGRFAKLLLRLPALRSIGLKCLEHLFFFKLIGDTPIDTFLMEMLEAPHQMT
# Experimental Protocol: HEK293T THR alpha/RXR luciferase reporter assay (Assay 2)
# Assay type: cell-based
# Reported Conditions: Table 4; THR-alpha; Assay 2; read-out: Activity category Assay 2 (EC50, THR-alpha agonist activity)
pEC50: −log10 of the molar value.

Example results:
CO[C@H]1C[C@H](c2cc(Oc3c(Cl)cc(-n4nc(N)c(=O)[nH]c4=O)cc3Cl)n[nH]c2=O)C1; < 5.00
Nc1nn(-c2cc(Cl)c(Oc3cc(C45CC(C4)C5)c(=O)[nH]n3)c(Cl)c2)c(=O)[nH]c1=O; 6.00 to 6.60
Nc1nn(-c2cc(Cl)c(Oc3cc(C4CCC(F)(F)CC4)c(=O)[nH]n3)c(Cl)c2)c(=O)[nH]c1=O; < 5.00

Notebook: Nc1nn(-c2cc(Cl)c(Oc3cc(C4CC5(CCC5)C4)c(=O)[nH]n3)c(Cl)c2)c(=O)[nH]c1=O , pEC50 read as 5.00 to 6.00

* * *

Listed next: entries and their corresponding EC50.
# Tested On: human thyroid receptor beta ligand-binding domain (LBD) (Homo sapiens, UniProt P10828)
# Experimental Protocol: TR-FRET thyroid receptor beta coactivator assay (THR biochemical assay, Assay 1)
# Reported Conditions: THR-beta, TR-FRET coactivator assay; read-out: Activity category Assay 1 (EC50, THR-beta agonist)

Notebook: CC(C)c1cc(Oc2c(Br)cc(-n3nc(N)c(=O)[nH]c3=O)cc2Br)n[nH]c1=O [Compound 81] , EC50 read as < 50 nM

* * *

Listed next: entries and their corresponding Emax.
# Tested On: human thyroid receptor alpha ligand-binding domain (LBD) (Homo sapiens, UniProt P10827)
# Construct: purchased Invitrogen
# Experimental Protocol: TR-FRET thyroid receptor alpha coactivator assay (THR biochemical assay, Assay 1)
# Reported Conditions: Table 5, THRα, read-out: Activity category Assay 1 THRα (Emax)

Lab note: compound CC(C)c1cc(Oc2c(Cl)cc(-n3nc(C#N)c(=O)[nH]c3=O)c3c2CC3)n[nH]c1=O [Compound 78] tested on human thyroid receptor alpha ligand-binding domain (LBD) (Homo sapiens, UniProt P10827); recorded Emax was < 50%

Lab note: compound Nc1nn(-c2cc(Cl)c(Oc3cc(-c4ccccc4)c(=O)[nH]n3)c(Cl)c2)c(=O)[nH]c1=O [Compound 63] tested on human thyroid receptor alpha ligand-binding domain (LBD) (Homo sapiens, UniProt P10827); recorded Emax was < 50%

Lab note: compound CO[C@H]1C[C@H](c2cc(Oc3c(Cl)cc(-n4nc(N)c(=O)[nH]c4=O)cc3Cl)n[nH]c2=O)C1 [Compound 102] tested on human thyroid receptor alpha ligand-binding domain (LBD) (Homo sapiens, UniProt P10827); recorded Emax was < 50%

* * *

# Tested On: human thyroid receptor alpha ligand-binding domain (LBD) (Homo sapiens)
# Experimental Protocol: TR-FRET thyroid receptor alpha coactivator assay (THR biochemical assay, Assay 1)
# Reported Conditions: Table 4, THR-alpha, read-out: Activity category Assay 1 (EC50, THR-alpha agonist activity)
pEC50: −log10 of the molar value.
Metric Name: pEC50

Example results:
CO[C@H]1C[C@H](c2cc(Oc3c(Cl)cc(-n4nc(N)c(=O)[nH]c4=O)cc3Cl)n[nH]c2=O)C1 [Compound 102]; 4.60 to 6.00
Nc1nn(-c2cc(Cl)c(Oc3cc(Cc4ccc(=O)[nH]n4)c(=O)[nH]n3)c(Cl)c2)c(=O)[nH]c1=O [Compound 160]; 4.60 to 6.00

Would you kindly look at the next entry?
Lab note: molecule C[C@H]1C[C@@H](c2cc(Oc3c(Cl)cc(-n4nc(N)c(=O)[nH]c4=O)cc3Cl)n[nH]c2=O)C1 (single isomer, unassigned) [Compound 86-B] tested on human thyroid receptor alpha ligand-binding domain (LBD) (Homo sapiens); recorded pEC50 was 4.60 to 6.00

* * *

# Tested On: human thyroid receptor alpha ligand-binding domain (LBD) (Homo sapiens)
# Experimental Protocol: TR-FRET thyroid receptor alpha coactivator assay (THR biochemical assay, Assay 1)
# Reported Conditions: Table 4, THR-alpha, read-out: Activity category Assay 1 (EC50, THR-alpha agonist activity)
Metric Name: EC50

Notebook: Nc1nn(-c2cc(Cl)c(Oc3cc(C4CCOCC4)c(=O)[nH]n3)c(Cl)c2)c(=O)[nH]c1=O , EC50 read as 1000 to 25000 nM

Notebook: Cc1cncc(-c2cc(Oc3c(Cl)cc(-n4ncc(=O)[nH]c4=O)cc3Cl)n[nH]c2=O)c1 , EC50 read as > 25000 nM

* * *

# Tested On: human thyroid receptor alpha ligand-binding domain (LBD) (Homo sapiens, UniProt P10827)
# Construct: purchased Invitrogen
# Experimental Protocol: TR-FRET thyroid receptor alpha coactivator assay (THR biochemical assay, Assay 1)
# Reported Conditions: Table 5, THRα, read-out: Activity category Assay 1 THRα (Emax)
Metric Name: Emax

Example results:
Cc1cc(-n2nc(C#N)c(=O)[nH]c2=O)cc(C)c1Cc1ccc2[nH]c(=O)cc(C(C)C)c2c1; < 50%
Nc1nn(-c2cc(Cl)c(Oc3n[nH]c(=O)cc3-c3ccc4ccnnc4c3)c(Cl)c2)c(=O)[nH]c1=O; < 50%
CC(C)c1cc(Cc2c(Cl)cc(-n3nc(N)c(=O)[nH]c3=O)cc2Cl)n[nH]c1=O; 50 to 75%
O=c1cnn(-c2cc(Cl)c(Oc3cc(-c4ccc5sccc5c4)c(=O)[nH]n3)c(Cl)c2)c(=O)[nH]1; < 50%
CC(C)c1c[nH]c2ccc(Oc3c(Cl)cc(-n4nc(N)c(=O)[nH]c4=O)cc3Cl)cc12; 50 to 75%

Notebook: Cc1cc(-n2nc(N)c(=O)[nH]c2=O)cc(C)c1Cc1ccc2c(c1)C1(CC1)C(=O)N2 , Emax read as > 75%

Notebook: CC(C)C1(C)C(=O)Nc2ccc(Oc3c(Cl)cc(-n4nc(N)c(=O)[nH]c4=O)cc3Cl)cc21 (stereo not shown) , Emax read as 50 to 75%
